Data provenance: patent US9193736B2

targetEntity: Rat recombinant PDE10a (rPDE10a) (Rattus norvegicus (Rat))
Sequence (Q9QYJ6 whole entry): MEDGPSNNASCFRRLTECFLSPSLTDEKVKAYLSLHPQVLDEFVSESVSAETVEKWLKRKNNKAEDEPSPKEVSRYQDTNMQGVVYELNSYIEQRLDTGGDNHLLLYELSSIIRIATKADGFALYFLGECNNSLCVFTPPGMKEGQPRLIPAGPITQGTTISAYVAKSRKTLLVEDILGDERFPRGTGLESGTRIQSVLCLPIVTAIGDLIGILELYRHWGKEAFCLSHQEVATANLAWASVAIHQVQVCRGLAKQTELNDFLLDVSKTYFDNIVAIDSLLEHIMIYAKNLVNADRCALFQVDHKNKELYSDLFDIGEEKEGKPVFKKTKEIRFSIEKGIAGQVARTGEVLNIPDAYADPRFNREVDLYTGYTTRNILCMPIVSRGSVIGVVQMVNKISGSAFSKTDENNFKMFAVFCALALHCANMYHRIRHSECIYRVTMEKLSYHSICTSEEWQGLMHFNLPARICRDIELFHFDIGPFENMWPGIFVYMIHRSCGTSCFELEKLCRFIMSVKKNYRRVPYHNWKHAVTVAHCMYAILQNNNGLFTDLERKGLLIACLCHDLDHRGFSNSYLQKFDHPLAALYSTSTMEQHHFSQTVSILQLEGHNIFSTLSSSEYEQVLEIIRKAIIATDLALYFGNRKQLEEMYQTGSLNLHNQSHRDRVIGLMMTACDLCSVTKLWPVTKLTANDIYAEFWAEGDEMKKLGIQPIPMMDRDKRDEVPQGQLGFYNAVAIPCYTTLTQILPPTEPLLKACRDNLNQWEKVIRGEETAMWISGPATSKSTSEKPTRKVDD
assayDetails: In vitro assay PDE10a: rat recombinant PDE10a SPA with 3H-cAMP substrate, IC50
conditionsUsed: 60 nM cAMP, read-out: rPDE10a2 IC50
Where a name gives a salt, the structure may show the parent alone.
Entries and their IC50 values follow.
Respond with the bare value in nM.

Please review the entries below; each comes with its answer.
compound | IC50 / nM
CS(=O)(=O)NC(=O)c1ccc(-c2c(CCc3ccc4ccccc4n3)nc3c(N4CCOCC4)ccnn23)cc1 | 1
O=c1[nH]nnn1-c1ccc(-c2c(CCc3ccc4ccccc4n3)nc3c(N4CCOCC4)ccnn23)cc1 | 9

Proceed to the following item.
Request: Given the entry O=C(O)C1CCN(c2c(/C=C/c3ccc4ccccc4n3)nc3c(N4CCOCC4)ccnn23)CC1 [Cpd 131, trifluoroacetic acid salt] , what IC50 was observed with Rat recombinant PDE10a (rPDE10a) (Rattus norvegicus (Rat))?
Response: 5

###

targetEntity: Human recombinant PDE10A2 (Homo sapiens (Human), UniProt Q9Y233)
Sequence (Q9Y233 267-1055): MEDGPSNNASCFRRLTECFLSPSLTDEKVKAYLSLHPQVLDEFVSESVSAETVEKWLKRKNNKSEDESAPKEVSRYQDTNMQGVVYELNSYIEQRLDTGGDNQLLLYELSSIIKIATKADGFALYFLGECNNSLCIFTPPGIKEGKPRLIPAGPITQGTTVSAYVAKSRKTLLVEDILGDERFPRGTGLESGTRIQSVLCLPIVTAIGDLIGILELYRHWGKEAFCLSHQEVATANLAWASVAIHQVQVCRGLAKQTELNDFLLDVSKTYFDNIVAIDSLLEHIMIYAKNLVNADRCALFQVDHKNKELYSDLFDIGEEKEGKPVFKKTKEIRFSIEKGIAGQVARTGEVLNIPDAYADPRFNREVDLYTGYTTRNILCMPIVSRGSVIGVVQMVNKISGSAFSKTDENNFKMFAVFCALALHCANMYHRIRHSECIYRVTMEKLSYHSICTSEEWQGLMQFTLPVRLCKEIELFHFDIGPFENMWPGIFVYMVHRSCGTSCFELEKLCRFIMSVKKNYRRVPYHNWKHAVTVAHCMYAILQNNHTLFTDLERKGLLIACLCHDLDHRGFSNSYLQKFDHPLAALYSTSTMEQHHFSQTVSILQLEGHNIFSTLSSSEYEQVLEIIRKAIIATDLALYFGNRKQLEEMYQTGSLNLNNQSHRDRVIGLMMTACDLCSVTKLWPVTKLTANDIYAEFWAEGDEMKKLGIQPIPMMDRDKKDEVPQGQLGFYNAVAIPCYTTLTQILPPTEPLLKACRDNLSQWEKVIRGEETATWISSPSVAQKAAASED
assayDetails: In vitro hPDE10a: human recombinant PDE10A2 scintillation proximity assay, IC50
conditionsUsed: human recombinant PDE10A2, SPA, 60 nM cAMP; read-out: hPDE10a2 IC50
Counter-ions that a name gives are not always drawn.
Entries and their pIC50 values follow.
Just the number, please; pIC50 means minus log10 of the concentration in mol/L.

Please review the entries below; each comes with its answer.
compound | pIC50
O=C(O)c1ccc(-c2c(/C=C/c3ccc4ccccc4n3)nc3c(N4CCOCC4)ccnn23)cc1 [compound 40, trifluoroacetic acid salt] | 8.70
COc1cccc(/C=C/c2nc3c(N4CCOCC4)ccnn3c2-c2ccc(C(=O)O)cc2)n1 | 7.21
O=C(O)c1ccc(-c2c(/C=C/c3ccc4ccccc4n3)nc3c(N4CCOCC4)ccnn23)nc1 | 8.70
CC(=O)NS(=O)(=O)c1ccc(-c2c(/C=C/c3ccc4ccccc4n3)nc3c(N4CCOCC4)ccnn23)cc1 | 8.70
Clc1cc(N2CCOCC2)c2nc([C@H]3C[C@H](c4ccc5ccccc5n4)C3)cn2n1 | 7.72

Request: I am curious: what pIC50 value has been reported for O=C(O)CCc1ccc(-c2c([C@H]3C[C@H](c4ccc5ccccc5n4)C3)nc3c(N4CCOCC4)ccnn23)cc1 ?
Response: 8.70

Request: Moving on to the next compound: O=C(O)CC1CCN(c2c(/C=C/c3ccc4ccccc4n3)nc3c(N4CCOCC4)ccnn23)CC1
Response: 8.15

Request: Moving on to the next compound: c1cncc(-c2c(COc3ccc4ccccc4n3)nc3c(N4CCOCC4)ccnn23)c1
Response: 6.61

Request: Moving on to the next compound: O=C(O)C1CCN(c2c(/C=C/c3ccc4ccccc4n3)nc3c(N4CCOCC4)ccnn23)CC1 [Cpd 131, trifluoroacetic acid salt]
Response: 8.15

Request: Moving on to the next compound: O=c1[nH]nnn1-c1ccc(-c2c(CCc3ccc4ccccc4n3)nc3c(N4CCOCC4)ccnn23)cc1
Response: 8.40

Request: Moving on to the next compound: O=C(Nc1nc2c(N3CCOCC3)ccnn2c1-c1ccc(N2CCNCC2)nc1)c1ccc2ccccc2n1 [Cpd 8, trifluoroacetic acid salt]
Response: 6.22

Request: Moving on to the next compound: C(=C\c1nc2c(N3CCOCC3)ccnn2c1-c1ccc(-c2nnn[nH]2)cc1)/c1ccc2ccccc2n1
Response: 8.22

Request: Moving on to the next compound: CS(=O)(=O)NC(=O)c1ccc(-c2c(/C=C/c3ccc4ccccc4n3)nc3c(N4CCOCC4)ccnn23)cn1 [Cpd 27, trifluoroacetic acid salt]
Response: 8.70
